# tested.on: KMT9 (Homo sapiens)
# Sequence (Q9Y5N5 whole entry): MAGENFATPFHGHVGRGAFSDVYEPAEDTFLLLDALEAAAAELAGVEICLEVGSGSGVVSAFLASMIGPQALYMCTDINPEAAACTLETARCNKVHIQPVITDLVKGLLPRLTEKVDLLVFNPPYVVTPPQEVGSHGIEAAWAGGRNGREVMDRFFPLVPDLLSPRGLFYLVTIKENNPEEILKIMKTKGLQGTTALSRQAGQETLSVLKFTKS
# Sequence (Q9UI30 1-120 isoform Q9UI30-2 partner): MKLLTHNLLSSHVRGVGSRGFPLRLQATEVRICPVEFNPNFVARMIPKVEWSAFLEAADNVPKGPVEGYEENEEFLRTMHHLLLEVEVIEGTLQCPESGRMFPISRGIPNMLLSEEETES
# measurement.protocol: Microscale thermophoresis (MST) KMT9 binding
# assay.context: His-tag labelled KMT9 20 nM; read-out: MST (Kd)
pKd: −log10 of the molar value.
Catalogue of pKd values

[Q] Query pKd for Nc1ncnc2c1ccn2[C@@H]1C[C@H]([C@H]2CCCN2)[C@@H](O)[C@H]1O
[A] < 6.00

Others:
[Q] Please indicate pKd recorded for NCc1cccc([C@H]2C[C@@H](n3ccc4c(N)ncnc43)[C@H](O)[C@@H]2O)c1
[A] 6.00 to 7.00

====

# tested.on: KMT9 (Homo sapiens)
# measurement.protocol: Microscale thermophoresis (MST) KMT9 binding
# assay.context: His-tag labelled KMT9 20 nM; read-out: MST (Kd)
# Kd listing for each entry below

Please review the following examples before continuing.
[Q] Please tell me the measured Kd for CC1CNCCC1[C@H]1C[C@@H](n2cc(-c3nc(Cc4ccccc4)cs3)c3c(N)ncnc32)[C@H](O)[C@@H]1O (stereo partly drawn) ; system: KMT9 (Homo sapiens).
[A] 100 to 1000 nM

[Q] Report its Kd with KMT9 (Homo sapiens) as the test system: Nc1cc(-c2cnsc2)cc([C@H]2C[C@@H](n3ccc4c(N)nc(Cl)nc43)[C@H](O)[C@@H]2O)c1
[A] 10 to 100 nM

[Q] Report Kd under test system KMT9 (Homo sapiens) for Nc1nc(Cl)nc2c1c(-c1ccccc1)cn2[C@@H]1C[C@H](CNCCCNCCc2cccc(Oc3ccccc3)c2)[C@@H](O)[C@H]1O .
[A] 10 to 100 nM

Next:
[Q] Write Kd of Nc1ncnc2c1ccn2[C@@H]1C[C@H](c2cn[nH]c2)[C@@H](O)[C@H]1O ; system used: KMT9 (Homo sapiens)
[A] > 1000 nM

[Q] Provide Kd, recorded with KMT9 (Homo sapiens), of Nc1nc(Cl)nc2c1c(Br)cn2[C@@H]1C[C@H](CN(CCCNCCc2ccc(F)cc2)c2cn[nH]c2)[C@@H](O)[C@H]1O
[A] ≤ 10 nM

[Q] State, for KMT9 (Homo sapiens), measured Kd of the molecule listed here: Nc1nc(Cl)nc2c1c(-c1nc(Cc3ccccc3)cs1)cn2[C@@H]1C[C@H](C2CCN(Cc3cccs3)CC2)[C@@H](O)[C@H]1O
[A] ≤ 10 nM
